Reference source: patent US20250101041A1

Let's look at some compounds and their measured Emax at 30 µM.
- targetEntity: human mAChR M4 (Homo sapiens)
- Construct: expressed in transfected cells; host or cells: CHO-K1 (American Type Culture Collection), stably expressing hM4 and Gqi5
- Sequence (P08173 whole entry): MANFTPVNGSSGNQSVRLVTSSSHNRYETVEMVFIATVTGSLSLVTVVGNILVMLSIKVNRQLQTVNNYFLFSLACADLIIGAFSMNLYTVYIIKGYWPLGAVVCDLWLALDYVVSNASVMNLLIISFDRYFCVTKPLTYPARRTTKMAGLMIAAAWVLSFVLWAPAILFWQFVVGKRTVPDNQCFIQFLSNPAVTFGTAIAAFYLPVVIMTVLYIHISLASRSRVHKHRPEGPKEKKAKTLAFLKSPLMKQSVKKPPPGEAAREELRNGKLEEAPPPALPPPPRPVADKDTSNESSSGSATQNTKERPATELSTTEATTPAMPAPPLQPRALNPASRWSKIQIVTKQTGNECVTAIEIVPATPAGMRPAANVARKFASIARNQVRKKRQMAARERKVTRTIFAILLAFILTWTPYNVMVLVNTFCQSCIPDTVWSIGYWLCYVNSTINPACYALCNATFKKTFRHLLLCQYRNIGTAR
- assaySummary: mAChR M4 cell-based functional assay: calcium mobilization (Fluo-4, FDSS), potentiation of EC20 acetylcholine response in hM4-Gqi5 CHO-K1 cells
- assaySetup: CHO-K1, % ACh maximum at 30 μM; human M4
Answer with a number only, understood to be in %.

# compound, valueUnit, Emax at 30 µM
data = [
    ("Cc1cc2nc(C(F)F)cc(=O)n2nc1N1CCc2ncc(N3CCOC(C)(C)C3)cc2C1 [Compound 2-24]", "%", 95),
    ("Cc1cc2nccc(=O)n2nc1N1CCc2ncc(-c3ccnc(C4CC4)c3)cc2C1 [Compound 1-54]", "%", 76),
    ("COCc1cc(=O)n2nc(N3CCc4ncc(-c5ccccc5C)cc4C3)c(C)cc2n1 [Compound 1-337]", "%", 76),
    ("Cc1cc(=O)n2nc(N3CCc4ncc(-c5cnccc5Cl)cc4C3)c(C)c(C)c2n1 [Compound 1-126]", "%", 88),
    ("Cc1cc2nccc(=O)n2nc1N1CCc2ncc(-c3ccc(C4CC4)nc3)cc2C1 [Compound 1-67]", "%", 80),
    ("Cc1cc2nccc(=O)n2nc1N1CCc2ncc(-c3cn(C)nn3)cc2C1 [Compound 1-321]", "%", 61),
    ("COc1cnccc1-c1cnc2c(c1)CN(c1nn3c(=O)cc(C)nc3c(C)c1C)CC2 [Compound 1-282]", "%", 90),
    ("Cc1cc2nccc(=O)n2nc1N1CCc2ncc(Nc3ccccc3)cc2C1 [Compound 2-60]", "%", 91),
    ("COCc1cc(=O)n2nc(N3CCc4ncc(-c5cnn(C)c5C)cc4C3)c(C)cc2n1 [Compound 1-366]", "%", 72),
    ("Cc1cc2nccc(=O)n2nc1N1CCc2ncc(Nc3ccnc(C)c3F)cc2C1 [Compound 2-153]", "%", 83),
]

Field: next compound
Memo: [2H]C1([2H])Cc2ncc(Nc3cc(C)ncc3F)cc2C([2H])([2H])N1c1nn2c(=O)ccnc2cc1C [Compound 2-162] , reported Emax at 30 µM: 96
